molecular target: SARS-CoV-2 S on pseudovirions (Wuhan Hu-1 / IL1/2020, last 18 amino acids removed) (SARS-CoV-2, UniProt P0DTC2 14-1273); assay: cell-based or functional assay

{"columns": ["binder", "Mean IC50, pSV neutralization"],
 "data": [
  ["COV_3040 (antibody, V domains shown) VH: QVQLVESGGGLVQPGRSLRLSCTTSGFNFGDNSMSWVRQAPGKGLEWIGFISNKAHGGTTDYAASVKGRFTISRDDSKSIAYLQMNSLKAEDTAIYYCTKDSYGHFPSYGFDIWGQGTMVTVSS VL: DVVMTQTPLSLSVTPGQPASISCKSTQSLVHTDGKTYFYWFLQKPGQPPQLLIYDVSSRFSGVPDRFSGSGSATDFTLRISRVEAEDVGVYYCMHSINFPRTFGQGTKVEIT", "≥ 25 µg/ml"],
  ["COV_1082 (antibody, V domains shown) VH: EVQLVESGGGLVQPGGSLRLSCAASGFIFNIHGMNWFRQAPGKGLEWISHIGTSGESRDIHYADSVRGRFTISRDNGKHSLYLQMNSLTAEDTAVYFCARGLTNSDLWGQGTLVTVSS VL: EIVMTQTPLSSPVTLGQPASISCRSSESLVHSNGDTYLSWLHQRPGQPPRLLLYKISNRFSGVPDRFSGSGAGTDFTLTISRVEAEDVGLYYCMQATSFPRTFGQGTKVEIKR", "≥ 25 µg/ml"],
  ["COV_1063 (antibody, V domains shown, human IgG1) VH: EEKLVESGGDLVQPGGSLRISCEVSGFSLSKYWMNWVRQAPGKGLQWVANIEEDGSERNYADSVKGRFTISRDNARNSLYLQMNSLRVEDTAVYLCTAGHYAGPWGWGQGTLVTVSS VL: DIQMTQSPSSLSASVGDRVTVTCRASQDIGHYLAWYQQKPGKTPNLLIYDAFNLESGVPPRFGGSGSGTDFTLTISSLQPEDAATYYCQKYDSVPWTFGQGTKVEIKR", "≥ 25 µg/ml"]
]}
